Test system: HCT-116 colon
assayExplanation: NCI-60 one-dose screen, 48 h
conditionSet: 10 µM unless noted
Experimental: Growth inhibition of the HCT-116 human tumor cell line is measured as a screen for anti-cancer activity. Cells are grown in 96 well plates and exposed to the test compound for 48 hours. Compounds are tested at a single concentration, which is 10^-5 M for most compounds. The reported endpoint is percent growth (GI% or GIPRCNT), where numbers from 0 - 100% represent growth inhibition, and numbers from -100% - 0 represent cell death. For example, a value of 40 represents 60% growth inhibition. […]
About 83,000 compounds went through this panel and 20% of them were active in at least one assay; those are over-represented in the sample as a whole. The source made the active and inactive calls. Rule for the calls: active = growth percent below 10; inactive = the rest.
Classes used: 1 = active, -1 = inactive

| molecule | assignedClass |
| --- | --- |
| C[C@]12CCc3nc(Nc4ccccc4)sc3C1=CC[C@@H]1[C@@H]2CC[C@]2(C)/C(=N/NC(N)=S)CC[C@@H]12 | 1 |
| C[C@H]1[C@H](C)CC[C@]2(COC(=O)CCC(=O)O)CC[C@]3(C)C(=CC[C@@H]4[C@@]5(C)CCCNC(C)(C)[C@@H]5CC[C@]43C)[C@H]12 | -1 |
| Clc1ccccc1/C=N\Nc1ccccn1 | -1 |
| Cn1cc(-c2noc(C(=O)c3cn(C)c4ncccc34)n2)c2ccccc21 | -1 |
| N#CC1C(=O)NC(c2ccccc2[N+](=O)[O-])c2sc3c(F)cccc3c21 (centres undefined) | -1 |
| C=CC1=C(C)C2=NC1=CC1=NC(=CC3=C(C)C4=C(O)C(C(=O)O)C(=C5NC(=C2)C(C)C5CCC(=O)O)C4=N3)C(CC)=C1C (centres undefined) | -1 |
| C=C(C)[C@@H]1CC[C@]2(C(N)=O)CC[C@]3(C)[C@H](CC[C@@H]4[C@@]5(C)C/C(=C/c6cccnc6)C(=O)C(C)(C)[C@@H]5CC[C@]43C)[C@@H]12 | 1 |
| CC1(C)C(=O)/C(=C\c2cccnc2)C[C@]2(C)[C@H]3CC[C@@H]4[C@H]5[C@H](C(=O)/C=C/c6cccnc6)CC[C@]5(C(=O)O)CC[C@@]4(C)[C@]3(C)CC[C@@H]12 | 1 |
| O=S(=O)(/N=c1/n(-c2ccccc2)nc2n1CCN2C1=NCCN1)c1ccc(-c2ccccc2)cc1 | -1 |
| Nc1nc(N)c2c(n1)NC(c1ccc(F)cc1)C1CCc3ccccc3C1=N2 (centres undefined) | -1 |
| CSc1nc2sc3cc(Cl)c(Cl)cc3n2c(=N)c1C#N | -1 |
| CCOC(=O)c1c[nH]n2c(=S)ncnc12 | -1 |
| c1ccc(-c2nc(N3CCCNCC3)c3nc(-c4ccccc4)oc3n2)cc1 | 1 |
| O=C(Nc1cccnc1)c1ccc2ccc3ccc(C(=O)Nc4cccnc4)nc3c2n1 | 1 |
| O=S(=O)(NCc1ccccc1)c1ncnc2nc[nH]c12 | -1 |
| CCCSc1nc(N)nc2nc[nH]c12 | -1 |
| CCCN1CC(c2ccc(OC)c(OC)c2)=C(c2cn(C(=O)OCC)c3ccccc23)C1=O | -1 |
| COc1ccc2nc3ccccc3c(NCCNCCO)c2c1 | 1 |
| CCCCCC1CCCCN1C(=O)OCCCC (centres undefined) | -1 |
